Reference source: patent US20220408724A1

Items are presented alongside their recorded Bacterial count (Log (cfu/fabric cm^2)).
system: Staphylococcus aureus; assay: Measurement of viable bacterial count on fabric; assay type: cell-based; conditions: agent 250 μg/fabric g

MOLECULE: CCCCCCCCCCCCCCCCCCO [Example C18OH, 1-octadecanol, reference compound]
Bacterial count (Log (cfu/fabric cm^2)): 5.6 Log (cfu/fabric cm^2)
//
MOLECULE: CCCCCCCCCCO [Example C10OH, 1-decanol]
Bacterial count (Log (cfu/fabric cm^2)): 5.5 Log (cfu/fabric cm^2)
//
MOLECULE: CCCCCCCCCCCCCCO [Example C14OH, 1-tetradecanol]
Bacterial count (Log (cfu/fabric cm^2)): 5.6 Log (cfu/fabric cm^2)
//
MOLECULE: CCCCCCCCCCCCCCCCO [Example C16OH, 1-hexadecanol]
Bacterial count (Log (cfu/fabric cm^2)): 6.1 Log (cfu/fabric cm^2)

====

Items are presented alongside their recorded Metabolite suppression rate (%).
System: Micrococcus aloeverae
Assay: Suppression of metabolite 2-methylbutanoic acid from 14-methylhexadecanoic acid
Assay type: cell-based
Conditions: agent 250 μg/fabric g
Method: After culture on fabric prepared in the same manner as in the above (1), 3 ml of methanol was added, and extraction was carried out under ultrasonic irradiation for 30 minutes (20° C.). […] After that, 4-methyl-3-hexenoic acid as a metabolite from 14-methylhexadecanoic acid was quantified by HPLC. The quantification conditions are as follows. […]

COMPOUND: CCCCCCCCCCCCCCCCCCO [Example C18OH, 1-octadecanol, reference compound]
OUTPUT UNIT: %
Metabolite suppression rate (%): 1

COMPOUND: CCCCCCCCCCCCCO [Example C13OH, 1-tridecanol]
OUTPUT UNIT: %
Metabolite suppression rate (%): 59

COMPOUND: CCCCCCCCCCO [Example C10OH, 1-decanol]
OUTPUT UNIT: %
Metabolite suppression rate (%): 51

COMPOUND: CCCCCCCCCCCCOCCOCCO [Example C12E2, diethylene glycol mono-1-dodecyl ether, reference compound]
OUTPUT UNIT: %
Metabolite suppression rate (%): 8

COMPOUND: CCCCCCCCCCCCOCCOCCOCCOCCOCCO [Example C12E5, reference compound]
OUTPUT UNIT: %
Metabolite suppression rate (%): 6

====

system: Escherichia coli (NBRC3972); assay: Suppression of metabolism of 14-methylhexadecanoic acid on cotton fabric; format: cell-based; settings: agent 1000 μg/fabric g
Classify: true when Metabolism suppression rate (%) is strictly less than 40%; false when Metabolism suppression rate (%) is not.

COMPOUND: CCCCCCCCCO [Example C9OH, 1-nonyl alcohol]
ASSAYED TARGET: Escherichia coli (NBRC3972)
QUALITATIVE LABEL: true

COMPOUND: CCCCCCCCCCCCCCCCCCO [Example C18OH, 1-octadecanol, reference compound]
ASSAYED TARGET: Escherichia coli (NBRC3972)
QUALITATIVE LABEL: true

COMPOUND: CCCCCCCCCCCCCCCCO [Example C16OH, 1-hexadecanol]
ASSAYED TARGET: Escherichia coli (NBRC3972)
QUALITATIVE LABEL: true

COMPOUND: CCCCCCCCCCCCCCO [Example C14OH, 1-tetradecanol]
ASSAYED TARGET: Escherichia coli (NBRC3972)
QUALITATIVE LABEL: false

COMPOUND: CCCCCCCCCCO [Example C10OH, 1-decanol]
ASSAYED TARGET: Escherichia coli (NBRC3972)
QUALITATIVE LABEL: true
